Test system: ACHN renal
Assay: NCI tumour cell line growth inhibition, 48 h
So I've got a bunch of molecules here, and I need their GI50 values.

# GI50 lookup, item O=[N+]([O-])c1ccc2c(c1)[O][Sn][O]2
139 µg/mL

// query: COc1ccc(CN2c3ccccc3CCc3ccccc32)cc1F
604 nM

// query: O=[N+]([O-])c1ccc2c(c1)[O][Sn]([I])([I])[O]2
> 100000 nM

---

Test system: OVCAR-3 ovarian
Assay: NCI tumour cell line growth inhibition, 48 h
So I've got a bunch of molecules here, and I need their TGI values.

# TGI lookup, item Cn1c(=O)c2c(ncn2CN2CCN(Cn3cnc4c3c(=O)n(C)c(=O)n4C)CC2)n(C)c1=O
> 100 µM

// query: O=C(NCCCNCCNC(=O)c1cc(-c2ccccc2)nc2ccccc12)c1cc(-c2ccccc2)nc2ccccc12
3.6 µM

// query: Nc1nc(CCC(=O)Nc2cccc(C(F)(F)F)c2)cc(-c2ccc3ccccc3c2)n1
> 100 µM

// query: FCc1ncc(-c2ccc(C(F)(F)F)cc2)c(NC2CCCCCC2)n1
> 10 µM

// query: CC1(COS(=O)(=O)OCC2(C)COS(=O)(=O)OC2)COS(=O)(=O)OC1
> 100 µM

// query: CC1(Cl)CC2C(CC1Sc1nnnn1-c1ccccc1)C2(C)C (centres undefined)
> 100 µM

// query: O=C1C2Cc3ccccc3CN2C(=O)N1CCN1CCCC1 (centres undefined)
> 100 µM

// query: Nc1ccc(S(=O)(=O)NCc2nccs2)cc1
> 100 µM

// query: C=CC[C@@]1(C(=O)OC)[C@H](Sc2ccccc2)C1(C)C
> 100 µM

// query: COc1cc(/C=C2/N=C(c3ccccc3)N(C3=NNC4(C(=O)N3)c3ccccc3-c3ccccc34)NC2=O)ccc1O
53.5 µg/mL

// query: CCO/C(O)=C(/C(=N)N1CCCC1)C(=O)Nc1cccc(C(F)(F)F)c1
> 100 µM

// query: Cc1c(-c2ccccc2)c(C#N)c2nnc(C(N)=O)c(N)n12
> 100 µM

// query: CC(C)[C@H]1C(=O)N[C@@H](CCCN=C(N)N)C(=O)NCC(=O)N[C@@H](CC(=O)O)C(=O)N[C@H](Cc2ccccc2)C(=O)N1C
> 100 µM

// query: CC(C)Oc1cc(O)c2c(c1)OCC=C2CCC(=O)O
> 100 µM

// query: Cc1cc(-c2nnc3n2CCCCC3)c(C)n1-c1ccc(Cl)c(Cl)c1
23.7 µM

// query: C=C1C(=O)O[C@H]2C[C@@]3(C)[C@H](O)CCC(=C)[C@@H]3[C@@H](OC(C)=O)[C@H]12
26.9 µM

// query: O=C1NC2(CN3CCC2CC3)C(=O)N1CN(Cc1ccccc1)c1ccccc1 (centres undefined)
> 100 µM

// query: Cc1ccc(N=Nc2c(C)c(C#N)c(=S)n(C3OC(CO)C(O)C(O)C3O)c2-c2ccccc2)cc1 (centres undefined)
41 µM

// query: c1ccc2c(c1)nc1n2CCSC1
> 100 µM

// query: CCN1CSC(=S)N(CC)C1
> 100 µM

// query: C[C@]12CC[C@@H]3c4ccc(O)cc4C(O)C[C@H]3[C@@H]1CCC2=O (some centres undefined)
> 100 µM

// query: Cc1cc(=O)oc2cc(O)ccc12
> 100 µM

// query: CCN(CC)CCCC(C)Nc1c2ccc(C)cc2nc2ccc(OC)cc12 (centres undefined)
4.14 µM

// query: O=c1oc2ccc(Cl)cc2cc1-c1cn2cc(Cl)ccc2n1
> 100 µM

// query: Cc1c2ccc(N(C)c3ccnc(Nc4cccc(S(N)(=O)=O)c4)n3)cc2nn1C
> 25 µM

// query: CC(=O)Nc1ccc(S(=O)(=O)NNC(=O)c2cccnc2Nc2ccc(Cl)cc2)cc1
> 100 µM

// query: O=c1[nH]nc(Cc2ccccc2)n1-n1cnnc1
> 100 µM

// query: Cc1ccc(S(=O)(=O)N=Nc2c(O)[nH]c3c(Cl)cc(Cl)cc23)cc1
> 100 µM

// query: COc1ccc(C2C(C#N)=C(S)N(C3OC(CO)C(O)C(O)C3O)C(c3ccccc3)=C2C(C)=O)cc1 (centres undefined)
> 100 µM

// query: COc1ccc2nc3cc(Cl)ccc3c(NCCNCCCNC(=O)c3cc(-c4ccccc4)nc4ccccc34)c2c1
> 100 µM

// query: CCc1c(C)c(C#N)c(=S)n(C2OC(CO)C(O)C(O)C2O)c1C (centres undefined)
> 100 µM

// query: C[C-](O)O.O/C(=C\[C-](O)c1ccccc1)c1ccccc1.O/C(=C\[C-](O)c1ccccc1)c1ccccc1.[Nd+3] (centres undefined)
27.4 µM

// query: CC(=Nc1ccncc1)C(C)=Nc1ccncc1
28.8 µM

// query: C[C@]12CC[C@H](O)CC1=CC[C@@H]1[C@@H]2CC[C@]2(C)/C(=N/OCCN3CCCC3)CC[C@@H]12
31.1 µM

// query: C=C(C=O)CCCC(C)[C@@H]1CCC23CC12CCC1[C@@]2(C)CCC(OC(C)=O)C(C)(C)C2CC(OC2OC(COC(C)=O)C(O)C(O)C2O)[C@]13C (some centres undefined)
8.21 µM

// query: COc1c(C)c(OC)c2c(c1O)[C@@H]1[C@@H]3Cc4c(OC)c(C)c(OC)c(O)c4[C@H](CNC(=O)c4cnc5ccccc5n4)N3[C@@H](C#N)[C@H](C2)N1C
0.0168 µM

// query: Cc1c2cc[n+](C)cc2c(C)c2c1[nH]c1ccc(O)c(OCC(F)(F)F)c12
7.4 µM

// query: COC(=O)[C@@H]1C[C@@]2(C3C=CN(C(=O)C(F)(F)F)C=C3)c3ccccc3N(C(=O)C(F)(F)F)[C@H]2N1C(=O)OC
> 100 µM

// query: CCOC(=O)c1cc(/C=C/C(C)=C/C(=O)OC)n(C)c1C
> 100 µM
